tested_on: cloned human or rodent CNS receptors, channels, and transporters (PDSP panel) (Homo sapiens)
Construct: expressed in transfected cells
test_summary: PDSP GPCR panel primary binding assays at 10 μM
measurement_context: M3; primary assay, replicate 4
observable: Inhibition 4 (%)
Respond with the bare value in %.

## Task Which Inhibition 4 is reported for this compound? CC(=O)N1CCC(NC(=O)NC23CC4CC(CC(C4)C2)C3)CC1 [UNC10302683A, AR9281]
## Result -10.4

## Task Which Inhibition 4 is reported for this compound? O=C(NC1CC1)C(=O)C(Cc1ccccc1)NC(=O)[C@H]1CCC(=O)N1Cc1ccccc1 (stereo partly shown) [UNC10302676A, ABT-957 (Alicapistat)]
## Result -5.21

## Task Which Inhibition 4 is reported for this compound? CCC(=O)N1CCC(NC(=O)Nc2ccc(OC(F)(F)F)cc2)CC1 [UNC10302681A, TPPU]
## Result -10.26

## Task Which Inhibition 4 is reported for this compound? CNc1nc(C)nc(N[C@H]2CCC[C@@H](C(=O)NCc3ccc(C#N)cc3C(F)(F)F)C2)n1 [UNC10302679A, GSK2256294A]
## Result 2.95

----------
System: cloned human or rodent CNS receptors, channels, and transporters (PDSP panel)
test_summary: PDSP GPCR panel primary binding assays at 10 μM
measurement_context: H3; primary assay, replicate 1
observable: Inhibition 1
Units required after the number.

## Task Which Inhibition 1 is reported for this molecule? CC(=O)N1CCC(NC(=O)NC23CC4CC(CC(C4)C2)C3)CC1 [UNC10302683A, AR9281]
## Result 9.84%

## Task Which Inhibition 1 is reported for this molecule? O=c1oc2ccccc2cc1-c1cn2cc(Cc3ccc(F)cc3)sc2n1 [UNC10302680A, iMDK]
## Result 20.04%

## Task Which Inhibition 1 is reported for this molecule? CCC(=O)N1CCC(NC(=O)Nc2ccc(OC(F)(F)F)cc2)CC1 [UNC10302681A, TPPU]
## Result 28.2%

## Task Which Inhibition 1 is reported for this molecule? CNc1nc(C)nc(N[C@H]2CCC[C@@H](C(=O)NCc3ccc(C#N)cc3C(F)(F)F)C2)n1 [UNC10302679A, GSK2256294A]
## Result 10.42%

## Task Which Inhibition 1 is reported for this molecule? O=C(NC1CC1)C(=O)C(Cc1ccccc1)NC(=O)[C@H]1CCC(=O)N1Cc1ccccc1 (some centres unmarked) [UNC10302676A, ABT-957 (Alicapistat)]
## Result -25.14%

----------
tested_on: cloned human or rodent CNS receptors, channels, and transporters (PDSP panel) (Homo sapiens)
Construct: expressed in transfected cells
test_summary: PDSP GPCR panel primary binding assays at 10 μM
measurement_context: Receptor Alpha1B; primary assay, 10 μM
Field: Inhibition 1. Provide a value for each of the compounds that follow.
Respond with the bare value in %.

## Task Which Inhibition 1 is reported for this compound? O=c1oc2ccccc2cc1-c1cn2cc(Cc3ccc(F)cc3)sc2n1 [UNC10302680A, iMDK]
## Result 2.49

## Task Which Inhibition 1 is reported for this compound? c1cn2cc(-c3ccc4cn[nH]c4c3)nc(Nc3ccc(N4CCOCC4)cc3)c2n1 [UNC10302678A, Entospletinib (GS-9973)]
## Result 3.98

## Task Which Inhibition 1 is reported for this compound? Cl.NC(=O)c1cnc(N[C@@H]2CCCC[C@@H]2N)nc1Nc1cccc(-n2nccn2)c1 [UNC10302682A, P505-15 (PRT06207 HCl)]
## Result 60.7

## Task Which Inhibition 1 is reported for this compound? CCCCNc1ncc2c(-c3ccc(CN4CCN(C)CC4)cc3)cn([C@H]3CC[C@H](O)CC3)c2n1 [UNC2025C, UNC2025]
## Result 15.21

----------
Test system: cloned human or rodent CNS receptors, channels, and transporters (PDSP panel)
test_summary: PDSP GPCR panel primary binding assays at 10 μM
measurement_context: Alpha2C; primary assay, replicate 3
observable: Inhibition 3
Units required after the number.

## Task Which Inhibition 3 is reported for this molecule? CCC(=O)N1CCC(NC(=O)Nc2ccc(OC(F)(F)F)cc2)CC1 [UNC10302681A, TPPU]
## Result 7.34%

## Task Which Inhibition 3 is reported for this molecule? CC(=O)N1CCC(NC(=O)NC23CC4CC(CC(C4)C2)C3)CC1 [UNC10302683A, AR9281]
## Result -5.47%

## Task Which Inhibition 3 is reported for this molecule? CNc1nc(C)nc(N[C@H]2CCC[C@@H](C(=O)NCc3ccc(C#N)cc3C(F)(F)F)C2)n1 [UNC10302679A, GSK2256294A]
## Result -11.52%

## Task Which Inhibition 3 is reported for this molecule? O=C(NC1CC1)C(=O)C(Cc1ccccc1)NC(=O)[C@H]1CCC(=O)N1Cc1ccccc1 (stereo partly shown) [UNC10302676A, ABT-957 (Alicapistat)]
## Result -21.43%

----------
tested_on: cloned human or rodent CNS receptors, channels, and transporters (PDSP panel) (Homo sapiens, UniProt P50406)
Construct: expressed in transfected cells
Sequence (P50406 whole entry): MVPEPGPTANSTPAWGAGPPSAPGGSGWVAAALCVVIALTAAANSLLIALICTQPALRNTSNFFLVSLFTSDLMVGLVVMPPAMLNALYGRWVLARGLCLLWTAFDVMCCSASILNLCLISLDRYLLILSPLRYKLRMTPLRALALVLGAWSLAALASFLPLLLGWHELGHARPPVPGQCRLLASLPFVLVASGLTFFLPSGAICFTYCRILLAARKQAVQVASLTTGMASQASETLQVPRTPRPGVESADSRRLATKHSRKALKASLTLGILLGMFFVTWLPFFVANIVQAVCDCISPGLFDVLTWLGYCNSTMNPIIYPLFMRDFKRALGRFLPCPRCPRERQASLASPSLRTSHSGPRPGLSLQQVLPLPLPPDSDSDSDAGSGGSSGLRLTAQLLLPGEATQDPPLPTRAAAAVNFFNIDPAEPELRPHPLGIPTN
test_summary: PDSP GPCR panel primary binding assays at 10 μM
measurement_context: 5-HT6; primary assay, replicate 3
observable: Inhibition 3 (%)
Respond with the bare value in %.

## Task Which Inhibition 3 is reported for this compound? O=C(NC1CC1)C(=O)C(Cc1ccccc1)NC(=O)[C@H]1CCC(=O)N1Cc1ccccc1 (stereo partly shown) [UNC10302676A, ABT-957 (Alicapistat)]
## Result -20.76

## Task Which Inhibition 3 is reported for this compound? CNc1nc(C)nc(N[C@H]2CCC[C@@H](C(=O)NCc3ccc(C#N)cc3C(F)(F)F)C2)n1 [UNC10302679A, GSK2256294A]
## Result -17.27

## Task Which Inhibition 3 is reported for this compound? CC(=O)N1CCC(NC(=O)NC23CC4CC(CC(C4)C2)C3)CC1 [UNC10302683A, AR9281]
## Result -5.68

## Task Which Inhibition 3 is reported for this compound? CCC(=O)N1CCC(NC(=O)Nc2ccc(OC(F)(F)F)cc2)CC1 [UNC10302681A, TPPU]
## Result -9.33

----------
Field: Mean %. Provide a value for each of the molecules that follow.
tested_on: cloned human or rodent CNS receptors, channels, and transporters (PDSP panel) (Homo sapiens, UniProt P21728)
Construct: expressed in transfected cells
Sequence (P21728 whole entry): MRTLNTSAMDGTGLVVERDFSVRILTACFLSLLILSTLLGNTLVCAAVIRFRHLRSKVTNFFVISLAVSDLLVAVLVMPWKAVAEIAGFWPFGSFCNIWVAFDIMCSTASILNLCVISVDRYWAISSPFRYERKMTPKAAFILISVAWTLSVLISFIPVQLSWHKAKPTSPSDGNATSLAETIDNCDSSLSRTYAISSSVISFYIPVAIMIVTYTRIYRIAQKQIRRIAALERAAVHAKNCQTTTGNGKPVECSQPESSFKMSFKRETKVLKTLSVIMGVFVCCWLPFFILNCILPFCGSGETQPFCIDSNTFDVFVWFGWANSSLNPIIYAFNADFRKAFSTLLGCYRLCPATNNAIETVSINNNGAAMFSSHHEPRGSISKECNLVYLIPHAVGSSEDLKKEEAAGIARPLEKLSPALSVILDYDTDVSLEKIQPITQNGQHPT
test_summary: PDSP GPCR panel primary binding assays at 10 μM
measurement_context: Receptor D1; primary assay, 10 μM; mean of Inhibition 1-4

## Task Which Mean % is reported for this molecule? CCCCNc1ncc2c(-c3ccc(CN4CCN(C)CC4)cc3)cn([C@H]3CC[C@H](O)CC3)c2n1 [UNC2025C, UNC2025]
## Result 9.8%

## Task Which Mean % is reported for this molecule? c1cn2cc(-c3ccc4cn[nH]c4c3)nc(Nc3ccc(N4CCOCC4)cc3)c2n1 [UNC10302678A, Entospletinib (GS-9973)]
## Result -6.52%

## Task Which Mean % is reported for this molecule? Cl.NC(=O)c1cnc(N[C@@H]2CCCC[C@@H]2N)nc1Nc1cccc(-n2nccn2)c1 [UNC10302682A, P505-15 (PRT06207 HCl)]
## Result 10.73%

## Task Which Mean % is reported for this molecule? O=c1oc2ccccc2cc1-c1cn2cc(Cc3ccc(F)cc3)sc2n1 [UNC10302680A, iMDK]
## Result 1.13%

----------
Field: Inhibition 1. Provide a value for each of the compounds that follow.
tested_on: cloned human or rodent CNS receptors, channels, and transporters (PDSP panel) (Homo sapiens, UniProt P08172)
Construct: expressed in transfected cells
Sequence (P08172 1-466): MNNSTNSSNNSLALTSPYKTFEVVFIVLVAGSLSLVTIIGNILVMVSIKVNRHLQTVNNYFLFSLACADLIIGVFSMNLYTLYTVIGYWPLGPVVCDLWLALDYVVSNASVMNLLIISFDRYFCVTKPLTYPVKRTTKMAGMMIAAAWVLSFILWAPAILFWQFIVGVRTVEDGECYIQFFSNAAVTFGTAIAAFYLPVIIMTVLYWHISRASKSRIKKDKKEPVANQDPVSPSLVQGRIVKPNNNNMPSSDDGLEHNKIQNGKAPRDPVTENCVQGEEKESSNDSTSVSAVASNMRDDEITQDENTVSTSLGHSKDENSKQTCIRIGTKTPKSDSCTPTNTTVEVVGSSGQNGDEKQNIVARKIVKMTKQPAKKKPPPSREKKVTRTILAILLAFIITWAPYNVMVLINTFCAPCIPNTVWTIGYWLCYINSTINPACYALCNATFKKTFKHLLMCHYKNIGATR
test_summary: PDSP GPCR panel primary binding assays at 10 μM
measurement_context: M2; primary assay, replicate 1
Respond with the bare value in %.

## Task Which Inhibition 1 is reported for this compound? O=C(NC1CC1)C(=O)C(Cc1ccccc1)NC(=O)[C@H]1CCC(=O)N1Cc1ccccc1 (some centres unmarked) [UNC10302676A, ABT-957 (Alicapistat)]
## Result 7.16

## Task Which Inhibition 1 is reported for this compound? CC(=O)N1CCC(NC(=O)NC23CC4CC(CC(C4)C2)C3)CC1 [UNC10302683A, AR9281]
## Result -16.19

## Task Which Inhibition 1 is reported for this compound? CNc1nc(C)nc(N[C@H]2CCC[C@@H](C(=O)NCc3ccc(C#N)cc3C(F)(F)F)C2)n1 [UNC10302679A, GSK2256294A]
## Result -13.73

## Task Which Inhibition 1 is reported for this compound? O=c1oc2ccccc2cc1-c1cn2cc(Cc3ccc(F)cc3)sc2n1 [UNC10302680A, iMDK]
## Result -12.5

## Task Which Inhibition 1 is reported for this compound? CCC(=O)N1CCC(NC(=O)Nc2ccc(OC(F)(F)F)cc2)CC1 [UNC10302681A, TPPU]
## Result -14.72
